# tested_system: P.1 Spike (SARS-CoV2)
measure: pKd
One number for each entry, as −log10 of the molar value.

Solved entries (count: 2):
[
  {
    "binder": "Ab_23 scFv-Fc (scFv, V domains shown) VH: EVQLVQSGAEVKKPGSSVKVSCRSSGGTFSTYGITWVRQAPGQGLEWMGRIIPSLGIPNYAQKFQGRVTITADTSVSTAWMELSSLESDDTAIYYCARENIDLATNDFWGQGTLVTVSS VL: QSALTQPPSASGSPGQSVTISCTGTSRDIGAYGYVSWYQQVPGKAPKLIIYEVRNRPSGVSSRFSGSKSGNTASLTISGLQAEDEADYYCSSYTSSSTLDVVFGGGTKLTVL",
    "pKd": 11.06
  },
  {
    "binder": "S1-RBD-R3-T1-F5 (Ab2-7) scFv-Fc (scFv, V domains shown) VH: QVTLKESGPTRVKPTQTLTLTCTFSGFSLSTTGVGVGWIRQPPGKALEWLALIYWNDDKRYSPSLKSRLTITKDTSKNQVVLTMTNMDPVDTATYYCARISGSGYFYPFDIWGQGTTVTVSS VL: NFMLTQPHSVSESPGKTVTISCTRSSGSIASNYVQWYQQRPGSSPTTVIYEDNQRPSGVPDRFSGSIDSSSNSASLTISGLKAEDEADYYCQSYDSSSLWVFGGGTKLTVL",
    "pKd": 11.15
  }
]

Then this binder:
I'd like to know its pKd. The binder in question is Ab_14 scFv-Fc (scFv, V domains shown) VH: QVQLQQSGPGLVKPSQTLSLTCAISGDSVSSNSAAWNWIRQSPARGLEWLGRTYYRSRWYNDYAISMKSRITINPDTSKNQFSLQLESVTPEDTAVYYCAREIRGFDYWGQGTLVTVSS VL: QSVLTQPPSASGSPGQSVTISCTGTSSDVGAYNFVSWYQHHPGKAPKLIIYDFNKRPSGVPDRFSGSKSGNTASLTVSGLQADDEADYYCSSYAGSNNFDVVFGGGTKLTVL
11.01

meta.source: patent US20240409617A1
